- experiment notes: Biodistribution studies in HEK-uPAR xenograft-bearing nude mice
- measurement parameters: female, CD1/nude, mouse, muscle, 5 MBq (0.5 nmol), total radioactivity, 4 h p.i.; 5 MBq, 0.5 nmol; decay-corrected; average ± SD, n=3 animals
observable: tissue uptake at 4 h (%ID/g)
Respond numerically; units are %ID/g and should not be typed.

Given CC(C)C[C@H](NC(=O)[C@H](Cc1ccc(O)cc1)NC(=O)[C@@H](CCCNC(=N)N)NC(=O)[C@@H](CO)NC(=O)[C@H](Cc1ccccc1)NC(=O)[C@H](CC1CCCCC1)NC(=O)[C@H](CC(=O)O)NC(=O)CCOCCOCCOCCOCCNC(=O)[C@H](CCCCNC(=O)CCCc1ccc(I)cc1)NC(=O)CN1CCN(CC(=O)O)CCN(CC(=O)O)CCN(CC(=O)O)CC1)C(=O)N[C@@H](Cc1c[nH]c2ccccc12)C(=O)N[C@@H](CO)C(N)=O [[^177Lu]Lu-uPAR-05, metal not drawn] , state its recorded tissue uptake at 4 h. 1.1

* * *

Listing: tissue uptake at 4 h of selected compounds
- experiment notes: Biodistribution studies in HEK-uPAR xenograft-bearing nude mice
- measurement parameters: female, CD1/nude, mouse, kidneys, 5 MBq (0.5 nmol), total radioactivity, 4 h p.i.; 5 MBq, 0.5 nmol; decay-corrected; average ± SD, n=3 animals
Respond numerically; units are %ID/g and should not be typed.

The examples below pair each entry with its known result.
compound | observable | result units | data value
CC(C)C[C@H](NC(=O)[C@H](Cc1ccc(O)cc1)NC(=O)[C@@H](CCCNC(=N)N)NC(=O)[C@@H](CO)NC(=O)[C@H](Cc1ccccc1)NC(=O)[C@H](CC1CCCCC1)NC(=O)[C@H](CC(=O)O)NC(=O)[C@H](CCCCNC(=O)CCCc1ccc(I)cc1)NC(=O)CN1CCN(CC(=O)O)CCN(CC(=O)O)CCN(CC(=O)O)CC1)C(=O)N[C@@H](Cc1c[nH]c2ccccc12)C(=O)N[C@@H](CO)C(N)=O [[^177Lu]Lu-uPAR-01, metal not drawn] | tissue uptake at 4 h | %ID/g | 5.6
CC(C)C[C@H](NC(=O)[C@H](Cc1ccc(O)cc1)NC(=O)[C@@H](CCCNC(=N)N)NC(=O)[C@@H](CO)NC(=O)[C@H](Cc1ccccc1)NC(=O)[C@H](CC1CCCCC1)NC(=O)[C@H](CC(=O)O)NC(=O)CCOCCOCCOCCOCCNC(=O)[C@H](CCCCNC(=O)CCCc1ccc(I)cc1)NC(=O)CN1CCN(CC(=O)O)CCN(CC(=O)O)CCN(CC(=O)O)CC1)C(=O)N[C@@H](Cc1c[nH]c2ccccc12)C(=O)N[C@@H](CO)C(N)=O [[^177Lu]Lu-uPAR-05, metal not drawn] | tissue uptake at 4 h | %ID/g | 3.6
CC(C)C[C@H](NC(=O)[C@H](Cc1ccc(O)cc1)NC(=O)[C@@H](CCCNC(=N)N)NC(=O)[C@@H](CO)NC(=O)[C@H](Cc1ccccc1)NC(=O)[C@H](CC1CCCCC1)NC(=O)[C@H](CC(=O)O)NC(=O)CN1CCN(CC(=O)O)CCN(CC(=O)O)CCN(CC(=O)O)CC1)C(=O)N[C@@H](Cc1c[nH]c2ccccc12)C(=O)N[C@@H](CO)C(N)=O [[^177Lu]Lu-DOTA-AE105, metal not drawn, reference compound] | tissue uptake at 4 h | %ID/g | 1.5

Given CC(C)C[C@H](NC(=O)[C@H](Cc1ccc(O)cc1)NC(=O)[C@@H](CCCNC(=N)N)NC(=O)[C@@H](CO)NC(=O)[C@H](Cc1ccccc1)NC(=O)[C@H](CC1CCCCC1)NC(=O)[C@H](CC(=O)O)NC(=O)[C@H](CCCCNC(=O)CCCc1ccc(I)cc1)NC(=O)[C@@H](N)CCCCNC(=O)CN1CCN(CC(=O)O)CCN(CC(=O)O)CCN(CC(=O)O)CC1)C(=O)N[C@@H](Cc1c[nH]c2ccccc12)C(=O)N[C@@H](CO)C(N)=O [[^177Lu]Lu-uPAR-04, metal not drawn] , state its recorded tissue uptake at 4 h. 5.9

Source listed as paper PMC12135066.
